# procedure details: Pharmacokinetic test in SD rats
# protocol conditions: rat, plasma, po, 3 mg/kg
experimental endpoint: MRT last (h)

1) CC(C)C[C@](C)(N)COc1ccc(-c2ccnc(C(F)F)c2)nc1C(F)F [BMS-986176, reference compound] = 7.52

###

# procedure details: Pharmacokinetic test in SD rats
# protocol conditions: male, SD, rat, plasma, po, 3 mg/kg
experimental endpoint: half-life (h)

1. CC(C)C[C@](C)(N)COc1ccc(-c2c[nH]c3ncc(F)cc23)nc1C(F)F = 6.98

###

# target: AAK1 (30-330) protein (Homo sapiens)
# Construct: (His)6x (N); TEV protease cleavage site (N); made in house; host or cells: Escherichia coli BL21(DE3)
# Sequence (Q2M2I8 30-330): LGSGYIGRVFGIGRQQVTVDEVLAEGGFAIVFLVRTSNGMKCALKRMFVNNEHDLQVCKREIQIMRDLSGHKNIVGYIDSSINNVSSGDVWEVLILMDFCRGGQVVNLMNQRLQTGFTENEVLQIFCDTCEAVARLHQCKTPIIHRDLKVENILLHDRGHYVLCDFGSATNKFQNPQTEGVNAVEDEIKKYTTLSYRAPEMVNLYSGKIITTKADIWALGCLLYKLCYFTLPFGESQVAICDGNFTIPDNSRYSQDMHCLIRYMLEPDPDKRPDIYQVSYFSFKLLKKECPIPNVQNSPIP
# procedure details: AAK1 kinase assay (ADP generated, detected by HPLC)
# Type: biochemical
# protocol conditions: 3.5 nM AAK1, 22 µM ATP, 25°C, 3 h
pIC50: −log10 of the molar value.
experimental endpoint: pIC50

1) CC(C)C[C@](C)(N)COc1ccc(-c2c[nH]c3nc(C(F)(F)F)ccc23)nc1C(F)F [Compound 4] = 7.34
2) CC(C)C[C@](C)(N)COc1ccc(-c2ccnc3[nH]c(C(F)(F)F)nc23)nc1C(F)F [Compound 8] = 6.89
3) CC(C)C[C@@](C)(N)COc1ccc(-c2ccnc3[nH]c(C(F)(F)F)nc23)nc1C(F)F [Compound 9] = 7.00
4) CC(C)C[C@@](C)(N)COc1ccc(-c2ccnc3ccnn23)nc1C(F)F [Compound 1] = 7.49

###

# procedure details: Pharmacokinetic test in SD rats
# protocol conditions: rat, plasma, po, 3 mg/kg
experimental endpoint: MRT inf (h)

1) CC(C)C[C@](C)(N)COc1ccc(-c2ccnc(C(F)F)c2)nc1C(F)F [BMS-986176, reference compound] = 9.5

###

# target: AAK1 (Homo sapiens)
# Construct: HA
# Sequence (Q2M2I8 whole entry): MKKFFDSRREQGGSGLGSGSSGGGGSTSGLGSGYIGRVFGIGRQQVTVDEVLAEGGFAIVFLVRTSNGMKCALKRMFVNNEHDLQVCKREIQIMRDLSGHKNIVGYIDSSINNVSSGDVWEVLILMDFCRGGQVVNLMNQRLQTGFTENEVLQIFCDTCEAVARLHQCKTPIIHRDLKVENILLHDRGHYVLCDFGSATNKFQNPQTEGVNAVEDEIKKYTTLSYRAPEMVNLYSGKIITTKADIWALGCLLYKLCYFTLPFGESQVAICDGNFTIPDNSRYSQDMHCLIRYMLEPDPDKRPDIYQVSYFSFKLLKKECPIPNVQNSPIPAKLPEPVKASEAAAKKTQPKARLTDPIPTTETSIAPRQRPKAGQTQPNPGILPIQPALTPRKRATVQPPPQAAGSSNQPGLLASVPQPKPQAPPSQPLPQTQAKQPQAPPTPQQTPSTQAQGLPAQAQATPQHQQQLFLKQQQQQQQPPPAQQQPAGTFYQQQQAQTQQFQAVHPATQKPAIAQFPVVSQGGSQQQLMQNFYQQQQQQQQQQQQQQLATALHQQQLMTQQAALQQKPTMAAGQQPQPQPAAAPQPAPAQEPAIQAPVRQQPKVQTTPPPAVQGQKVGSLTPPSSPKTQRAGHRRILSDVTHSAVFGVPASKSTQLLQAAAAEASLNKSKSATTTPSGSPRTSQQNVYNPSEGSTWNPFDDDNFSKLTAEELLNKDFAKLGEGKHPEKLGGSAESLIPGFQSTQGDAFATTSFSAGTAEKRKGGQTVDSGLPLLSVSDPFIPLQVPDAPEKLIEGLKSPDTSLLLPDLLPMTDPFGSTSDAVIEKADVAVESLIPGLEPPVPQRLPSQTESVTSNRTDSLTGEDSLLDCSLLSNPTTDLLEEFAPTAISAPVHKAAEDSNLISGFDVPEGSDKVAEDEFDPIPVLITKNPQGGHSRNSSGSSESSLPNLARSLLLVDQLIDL
# procedure details: Effect on AP2M1 phosphorylation in 293T cells co-transfected with AAK1 and AP2M1 (Western blot, anti-p-AP2M1)
# protocol conditions: p-AP2M1 level, incubated 3 h
Structures can show the parent of a compound that is named as a salt.
experimental endpoint: IC50

1) CC(C)C[C@](C)(N)COc1ccc(-c2ccnc3c(C(=O)O)cnn23)nc1C1CC1 = 10 to 100 nM
2) CC(C)C[C@@](C)(N)COc1ccc(-c2c[nH]c3nc(C(F)(F)F)ccc23)nc1C(F)F = 10 to 100 nM
3) CC(C)C[C@@](C)(N)COc1ccc(-c2cncc3[nH]c(C(F)(F)F)nc23)nc1C(F)F = 10 to 100 nM
4) CC(C)C[C@](C)(N)COc1ccc(-c2cn(C)c3ncc(F)cc23)nc1C(F)F = < 10 nM
5) CC(C)C[C@](C)(N)COc1ccc(-c2c[nH]c3ncc(C(F)F)cc23)cc1C(F)(F)F = 10 to 100 nM
6) COc1ccnc2[nH]cc(-c3ccc(OC[C@@](C)(N)CC(C)C)c(C(F)F)n3)c12 [Compound 16, tris(trifluoroacetate)] = 10 to 100 nM
7) CC(C)C[C@](C)(N)COc1ccc(-c2c[nH]c3nc(C(F)(F)F)ccc23)nc1C(F)F = 10 to 100 nM
8) CC(C)C[C@](C)(N)COc1ccc(-c2c[nH]c3ncc(C(F)F)cc23)nc1C(F)F [Compound 28, formate] = 10 to 100 nM
9) CC(C)C[C@](C)(N)COc1ccc(-c2cncc3[nH]c(C(F)(F)F)nc23)nc1C(F)F = 10 to 100 nM
10) COc1ccnc2[nH]cc(-c3ccc(OC[C@](C)(N)CC(C)C)c(C(F)F)n3)c12 = 100 to 1000 nM
11) CC(C)C[C@@](C)(N)COc1ccc(-c2ccnc3c(F)cnn23)nc1C(F)F = 10 to 100 nM
12) CC(C)C[C@](C)(N)COc1ccc(-c2ccnc(C(F)F)c2)nc1C(F)F [BMS-986176, reference compound] = 100 to 1000 nM
13) CC(C)C[C@@](C)(N)COc1ccc(-c2c[nH]c3ncccc23)nc1C(F)F = 10 to 100 nM
14) CC(C)C[C@](C)(N)COc1ccc(-c2ccnc3c2nc(C(F)(F)F)n3C)nc1C(F)F = 10 to 100 nM
15) CC(C)C[C@](C)(N)COc1ccc(-c2ccnc3[nH]c(C(F)(F)F)nc23)nc1C(F)F = 10 to 100 nM
16) Cc1nc2ccnn2c(-c2ccc(OC[C@](C)(N)CC(C)C)c(C(F)F)n2)c1F = 10 to 100 nM
